tested on: Pseudomonas aeruginosa ATCC 27853; assay: MIC, NCCLS M7-A6 broth microdilution (Table 9, no superscript); type: cell-based; details: ATCC 27853
Non-standard residues stand in square brackets, D forms with d. Residues, ends and D or L forms follow the SMILES beside them. *: point of attachment. 1Nal = N[C@@H](Cc1cccc2ccccc12)C(=O)O; Lauroyl = CCCCCCCCCCCC(=O)*; Octanoyl = CCCCCCCC(=O)*
Measured MIC P. aeruginosa, listed per entry.
experimental.readout: MIC P. aeruginosa

molecule	experimental.system	experimental.value
CCCCCCCCCCCC(=O)NCCCC[C@H](NC(=O)[C@H](CCCNC(=N)N)NC(=O)[C@H](CCSC)NC(=O)[C@H](Cc1ccccc1)NC(=O)[C@H](CC(N)=O)NC(=O)[C@H](CCCNC(=N)N)NC(=O)[C@H](C)NC(=O)[C@@H](NC(=O)[C@H](CC(=O)O)NC(=O)[C@H](CCCNC(=N)N)NC(=O)[C@H](Cc1c[nH]c2ccccc12)NC(=O)[C@H](CCCNC(=N)N)NC(=O)[C@H](CO)NC(=O)[C@@H](N)CCCNC(=N)N)C(C)C)C(N)=O [Peptide 186, H2N-RSRWRDVARNFMRK(Lauryl)-NH2] (H-RSRWRDVARNFMRK(Lauroyl)-NH2)	Pseudomonas aeruginosa ATCC 27853	4 µg/mL
CCCCCCCCCCCC(=O)N[C@@H](CCCNC(=N)N)C(=O)N[C@@H](Cc1c[nH]c2ccccc12)C(=O)N[C@@H](CCCNC(=N)N)C(=O)N[C@@H](CC(=O)O)C(=O)N[C@H](C(=O)N[C@@H](C)C(=O)N[C@@H](CCCNC(=N)N)C(=O)N[C@@H](CC(N)=O)C(=O)N[C@@H](Cc1ccccc1)C(=O)N[C@@H](CCSC)C(=O)N[C@@H](CCCNC(=N)N)C(N)=O)C(C)C [Peptide 113, Lauryl-RWRDVARNFMR-NH2] (Lauroyl-RWRDVARNFMR-NH2)	Pseudomonas aeruginosa ATCC 27853	>64 µg/mL
CCCCCCCCCCCC(=O)N[C@@H](CCCNC(=N)N)C(=O)N[C@@H](CO)C(=O)N[C@@H](CCCNC(=N)N)C(=O)N[C@@H](Cc1cccc2ccccc12)C(=O)N[C@@H](CCCNC(=N)N)C(=O)N[C@@H](CC(=O)O)C(=O)N[C@H](C(=O)N[C@@H](C)C(=O)N[C@@H](CCCNC(=N)N)C(=O)N[C@@H](CC(N)=O)C(=O)N[C@@H](Cc1cccc2ccccc12)C(=O)N[C@@H](CCSC)C(=O)N[C@@H](CCCNC(=N)N)C(N)=O)C(C)C [Peptide 154] (Lauroyl-RSR[1Nal]RDVARN[1Nal]MR-NH2)	Pseudomonas aeruginosa ATCC 27853	>64 µg/mL
CCCCCCCC(=O)N[C@H](CCCNC(=N)N)C(=O)N[C@H](CO)C(=O)N[C@H](CCCNC(=N)N)C(=O)N[C@H](Cc1c[nH]c2ccccc12)C(=O)N[C@H](CCCNC(=N)N)C(=O)N[C@H](CC(=O)O)C(=O)N[C@@H](C(=O)N[C@H](C)C(=O)N[C@H](CCCNC(=N)N)C(=O)N[C@H](CC(N)=O)C(=O)N[C@H](Cc1ccccc1)C(=O)N[C@H](CC(C)C)C(=O)N[C@H](CCCNC(=N)N)C(N)=O)C(C)C [Peptide 252, Octyl-rsrwrdvarnflr-NH2] (Octanoyl-[dR][dS][dR][dW][dR][dD][dV][dA][dR][dN][dF][dL][dR]-NH2)	Pseudomonas aeruginosa ATCC 27853	16 µg/mL
CCCCCCCCCCCC(=O)N[C@@H](CCCNC(=N)N)C(=O)N[C@@H](CO)C(=O)N[C@@H](CCCNC(=N)N)C(=O)N[C@@H](Cc1c[nH]c2ccccc12)C(=O)N[C@@H](CCCNC(=N)N)C(=O)N[C@@H](CC(=O)O)C(=O)N[C@H](C(=O)N[C@@H](CC(C)C)C(=O)N[C@@H](CCCNC(=N)N)C(=O)N[C@@H](CC(N)=O)C(=O)N[C@@H](Cc1ccccc1)C(=O)N[C@@H](CC(C)C)C(=O)N[C@@H](CCCNC(=N)N)C(N)=O)C(C)C [Peptide 136, Lauryl-RSRWRDVLRNFLR-NH2] (Lauroyl-RSRWRDVLRNFLR-NH2)	Pseudomonas aeruginosa ATCC 27853	32 µg/mL
CCCCCCCCCCCC(=O)N[C@@H](CO)C(=O)N[C@@H](CCCNC(=N)N)C(=O)N[C@@H](Cc1c[nH]c2ccccc12)C(=O)N[C@@H](CCCNC(=N)N)C(=O)N[C@@H](CC(=O)O)C(=O)N[C@H](C(=O)N[C@@H](C)C(=O)N[C@@H](CCCNC(=N)N)C(=O)N[C@@H](CC(N)=O)C(=O)N[C@@H](Cc1ccccc1)C(=O)N[C@@H](CC(C)C)C(=O)N[C@@H](CCCNC(=N)N)C(N)=O)C(C)C [Peptide 162, Lauryl-SRWRDVARNFLR-NH2] (Lauroyl-SRWRDVARNFLR-NH2)	Pseudomonas aeruginosa ATCC 27853	>64 µg/mL
CCCCCCCCCCCC(=O)N[C@H](CCCNC(=N)N)C(=O)N[C@H](C)C(=O)N[C@H](CCCNC(=N)N)C(=O)N[C@H](Cc1c[nH]c2ccccc12)C(=O)N[C@H](CCCNC(=N)N)C(=O)N[C@H](C)C(=O)N[C@@H](C(=O)N[C@H](C)C(=O)N[C@H](CCCNC(=N)N)C(=O)N[C@H](C)C(=O)N[C@H](Cc1ccccc1)C(=O)N[C@H](C)C(=O)N[C@H](CCCNC(=N)N)C(N)=O)C(C)C [Peptide 217, Lauryl-rarwravarafar-NH2] (Lauroyl-[dR][dA][dR][dW][dR][dA][dV][dA][dR][dA][dF][dA][dR]-NH2)	Pseudomonas aeruginosa ATCC 27853	8 µg/mL
CCCCCCCCCCCC(=O)N[C@H](CO)C(=O)N[C@H](CCCNC(=N)N)C(=O)N[C@H](Cc1c[nH]c2ccccc12)C(=O)N[C@H](CCCNC(=N)N)C(=O)N[C@H](CC(=O)O)C(=O)N[C@@H](C(=O)N[C@H](C)C(=O)N[C@H](CCCNC(=N)N)C(=O)N[C@H](CC(N)=O)C(=O)N[C@H](Cc1ccccc1)C(=O)N[C@H](CCSC)C(=O)N[C@H](CCCNC(=N)N)C(N)=O)C(C)C [Peptide 131, Lauryl-srwrdvarnfmr-NH2] (Lauroyl-[dS][dR][dW][dR][dD][dV][dA][dR][dN][dF][dM][dR]-NH2)	Pseudomonas aeruginosa ATCC 27853	8 µg/mL
